B1: POU domain, class 3, transcription factor 4, residues 280 to 335; numbered along this chain, P49335 (parent)
chain: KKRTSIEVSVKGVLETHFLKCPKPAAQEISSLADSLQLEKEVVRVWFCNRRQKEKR

variants of: B1; assay: abundance fitness (aPCA) (normalised: wild type 0, dead -1); higher = more abundant; growth selection in yeast, the domain comes from the species named; settings: Homo sapiens
Use -0.6 as the dividing line for abundance fitness, with the line itself on the YES side and lower values as NO.

# biopolymer-sequence, class
records = [
    ("KKRTSIEVSVKGVLETHFLKCPKPAAQEISSLADSLQLEKEVVRVWECNRRQKEKR", "NO"),
    ("KKRTSIEVSVKGVLETHFLKCPKPAAQEISSLADSLQLEKEVVRVWFCNGRQKEKR", "NO"),
    ("KKRTSIEVSVKGVLETHFLKCPKPAAQEISSLADSLQLEKEVVRVWFCNRRQCEKR", "YES"),
    ("KKRTSIEVSVKGVLETHFLKCPKPAAQEISSLADSLQLEREVVRVWFCNRRQKEKR", "YES"),
    ("KKRTSIEVSVKGVLETHFLKCPKPAAQEISSLADSLQLEKRVVRVWFCNRRQKEKR", "NO"),
    ("KKRTSIEVSVKGVLYTHFLKCPKPAAQEISSLADSLQLEKEVVRVWFCNRRQKEKR", "NO"),
    ("KKRTSIEVSVKGVLETHFLKCPKPAAQEISSLADSLQLEKVVVRVWFCNRRQKEKR", "NO"),
    ("KKRTSIEVSVKGVLETHFLKCPKPAAQEISSLADSLQLDKEVVRVWFCNRRQKEKR", "YES"),
    ("KKATSIEVSVKGVLETHFLKCPKPAAQEISSLADSLQLEKEVVRVWFCNRRQKEKR", "YES"),
    ("KKRTSIEVSVKGVLETPFLKCPKPAAQEISSLADSLQLEKEVVRVWFCNRRQKEKR", "NO"),
    ("KKRTSIFVSVKGVLETHFLKCPKPAAQEISSLADSLQLEKEVVRVWFCNRRQKEKR", "YES"),
    ("KKRTSIEVSVKGVLETHFLKCPKPAAQEISRLADSLQLEKEVVRVWFCNRRQKEKR", "YES"),
    ("KKRTSIEVSVKVVLETHFLKCPKPAAQEISSLADSLQLEKEVVRVWFCNRRQKEKR", "YES"),
    ("KKRTSIEVSVKGVLETHFLKCPKPAAQEISSLADSLQLAKEVVRVWFCNRRQKEKR", "YES"),
    ("KKRTSIEVSVKGVLETHFLKCPKPAAQEISSLADSLQLHKEVVRVWFCNRRQKEKR", "YES"),
    ("KKLTSIEVSVKGVLETHFLKCPKPAAQEISSLADSLQLEKEVVRVWFCNRRQKEKR", "YES"),
    ("KKRTSIEVSVKGVLETHFLKCPKPAAQEISSLADSLQLEKEVVIVWFCNRRQKEKR", "NO"),
    ("KKRTSIEVSVKGVLETHFLKCPKPQAQEISSLADSLQLEKEVVRVWFCNRRQKEKR", "YES"),
    ("KKRTSIEVFVKGVLETHFLKCPKPAAQEISSLADSLQLEKEVVRVWFCNRRQKEKR", "YES"),
    ("KKRTSIEVSVKGVLETHFLKCPKPAAQEISSLADSLQLEKEVVRVWFCNRRQKEYR", "YES"),
    ("KKRTSIEVSVKGVLETHFLKCPKPAAQEISSLADSLQLEKEVVRVWSCNRRQKEKR", "YES"),
]
